Measured values drawn from patent US7173019B2 for this set.

# targetDesc: human platelet heparanase (Homo sapiens, UniProt Q9Y251)
# Construct: 10 ng of purified human platelet heparanase; from tissue; host or cells: human platelets
# Sequence (Q9Y251 158-543 limits assumed): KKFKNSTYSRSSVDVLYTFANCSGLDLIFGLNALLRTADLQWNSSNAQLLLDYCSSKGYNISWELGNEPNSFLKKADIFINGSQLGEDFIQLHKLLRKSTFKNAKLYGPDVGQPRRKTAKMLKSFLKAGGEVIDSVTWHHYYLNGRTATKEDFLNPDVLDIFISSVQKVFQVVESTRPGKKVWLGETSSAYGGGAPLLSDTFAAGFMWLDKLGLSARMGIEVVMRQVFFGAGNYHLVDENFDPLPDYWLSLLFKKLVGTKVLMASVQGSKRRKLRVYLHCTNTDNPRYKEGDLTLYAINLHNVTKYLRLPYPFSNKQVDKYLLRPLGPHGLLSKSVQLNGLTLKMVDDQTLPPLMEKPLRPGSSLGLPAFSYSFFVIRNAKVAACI
# Sequence (Q9Y251 36-109 limits assumed): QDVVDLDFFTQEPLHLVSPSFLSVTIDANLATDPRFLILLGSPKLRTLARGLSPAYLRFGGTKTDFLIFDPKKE
# testSummary: Heparanase inhibition, 3H-radiolabelled HS cleavage assay
# Assay type: biochemical
# testParameters: based on a comparison with heparin with 100% inhibition at 30 μg/ml; read-out: Relative inhibition (%)
Reported inhibition by item:
# unit: % | format: bare number

Query: Field request: inhibition | item: O=S(=O)(O)O[C@H]1[C@H](OS(=O)(=O)O)[C@@H](N(CCCCCN([C@H]2C=C[C@@H](OS(=O)(=O)O)[C@@H](OS(=O)(=O)O)[C@@H]2OS(=O)(=O)O)[C@H]2C=C[C@@H](OS(=O)(=O)O)[C@@H](OS(=O)(=O)O)[C@@H]2OS(=O)(=O)O)[C@H]2C=C[C@@H](OS(=O)(=O)O)[C@@H](OS(=O)(=O)O)[C@@H]2OS(=O)(=O)O)C=C[C@H]1OS(=O)(=O)O
Reply: 50

Query: What inhibition value was documented for this compound, O=S(=O)(O)O[C@H]1[C@H](OS(=O)(=O)O)[C@@H](N(CCCCCCCCN([C@H]2C=C[C@@H](OS(=O)(=O)O)[C@@H](OS(=O)(=O)O)[C@@H]2OS(=O)(=O)O)[C@H]2C=C[C@@H](OS(=O)(=O)O)[C@@H](OS(=O)(=O)O)[C@@H]2OS(=O)(=O)O)[C@H]2C=C[C@@H](OS(=O)(=O)O)[C@@H](OS(=O)(=O)O)[C@@H]2OS(=O)(=O)O)C=C[C@H]1OS(=O)(=O)O ?
Reply: 53

Query: # get_value(readout='inhibition', item= O=S(=O)(O)O[C@H]1[C@H](OS(=O)(=O)O)[C@@H](N(CCN([C@H]2C=C[C@@H](OS(=O)(=O)O)[C@@H](OS(=O)(=O)O)[C@@H]2OS(=O)(=O)O)[C@H]2C=C[C@@H](OS(=O)(=O)O)[C@@H](OS(=O)(=O)O)[C@@H]2OS(=O)(=O)O)[C@H]2C=C[C@@H](OS(=O)(=O)O)[C@@H](OS(=O)(=O)O)[C@@H]2OS(=O)(=O)O)C=C[C@H]1OS(=O)(=O)O )
Reply: 60

Query: # input compound: O=S(=O)(O)O[C@H]1[C@H](OS(=O)(=O)O)[C@@H](N(CCCCCCCCCN([C@H]2C=C[C@@H](OS(=O)(=O)O)[C@@H](OS(=O)(=O)O)[C@@H]2OS(=O)(=O)O)[C@H]2C=C[C@@H](OS(=O)(=O)O)[C@@H](OS(=O)(=O)O)[C@@H]2OS(=O)(=O)O)[C@H]2C=C[C@@H](OS(=O)(=O)O)[C@@H](OS(=O)(=O)O)[C@@H]2OS(=O)(=O)O)C=C[C@H]1OS(=O)(=O)O ; wanted: its inhibition
Reply: 73

====

# targetDesc: IL-8 (Homo sapiens)
# Sequence (P10145 21-99, species assumed): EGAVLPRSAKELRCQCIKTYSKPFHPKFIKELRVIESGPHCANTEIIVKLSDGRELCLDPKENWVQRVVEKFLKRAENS
# testSummary: Biacore biosensor: inhibition of IL-8 binding to immobilised heparin and heparan sulfate
# testParameters: immobilised heparan sulfate; inhibitor 1.0 μM, IL-8 0.068 μM
compounds and their reported Inhibition of binding of IL-8 (HS)

Below are worked cases with known answers.
compound	targetDesc	Inhibition of binding of IL-8 (HS)
O=S(=O)(O)OC1C(OS(=O)(=O)O)C(OS(=O)(=O)O)C(N(Cc2cccc(CN(C3C(OS(=O)(=O)O)C(OS(=O)(=O)O)C(OS(=O)(=O)O)C(OS(=O)(=O)O)C3OS(=O)(=O)O)C3C(OS(=O)(=O)O)C(OS(=O)(=O)O)C(OS(=O)(=O)O)C(OS(=O)(=O)O)C3OS(=O)(=O)O)c2)C2C(OS(=O)(=O)O)C(OS(=O)(=O)O)C(OS(=O)(=O)O)C(OS(=O)(=O)O)C2OS(=O)(=O)O)C(OS(=O)(=O)O)C1OS(=O)(=O)O (stereo not drawn) [Compound 5d]	IL-8 (Homo sapiens)	62% (HS)
O=S(=O)(O)OC1C=CC(N(CCCCCCN(C2C=CC(OS(=O)(=O)O)C(OS(=O)(=O)O)C2OS(=O)(=O)O)C2C=CC(OS(=O)(=O)O)C(OS(=O)(=O)O)C2OS(=O)(=O)O)C2C=CC(OS(=O)(=O)O)C(OS(=O)(=O)O)C2OS(=O)(=O)O)C(OS(=O)(=O)O)C1OS(=O)(=O)O (stereo not drawn) [Compound 4b]	IL-8 (Homo sapiens)	48% (HS)

// below: Inhibition of binding of IL-8 (HS) requested for another compound
Query: Could you tell me which Inhibition of binding of IL-8 (HS) is on file for O=S(=O)(O)OC1C=CC(N(Cc2cccc(CN(C3C=CC(OS(=O)(=O)O)C(OS(=O)(=O)O)C3OS(=O)(=O)O)C3C=CC(OS(=O)(=O)O)C(OS(=O)(=O)O)C3OS(=O)(=O)O)c2)C2C=CC(OS(=O)(=O)O)C(OS(=O)(=O)O)C2OS(=O)(=O)O)C(OS(=O)(=O)O)C1OS(=O)(=O)O (stereo not drawn) [Compound 4d] ?
Reply: 50% (HS)
